Reference for the values: patent US11801255B2

test system: PBMCs; assay: in vitro; assay type: cell-based, human; details: Table 2; read-out: HIV-1 CC50 (PBMCs)
readout: CC50

molecule	CC50
CCCCCCCCCCSSCCOP(=O)(CO[C@H](C)Cn1cnc2c(N)ncnc21)OCCSSCCCCCCCCCC [Compound 12a]	> 100 µM
CCCCCCCCCCCCCCSSCCOP(=O)(CO[C@H](C)Cn1cnc2c(N)ncnc21)OCCSSCCCCCCCCCCCCCC [Compound 12c]	> 100 µM
CCCCCCCCCCCCCCCCCCSSCCOP(=O)(CO[C@H](C)Cn1cnc2c(N)ncnc21)OCCSSCCCCCCCCCCCCCCCCCC [Compound 12e]	> 25 µM

QUERY: Give CC50 (PBMCs) of the following molecule: CCCCCCCCCCCCSSCCOP(=O)(CO[C@H](C)Cn1cnc2c(N)ncnc21)OCCSSCCCCCCCCCCCC [Compound 12b]
RESULT: > 100 µM

QUERY: Give CC50 (PBMCs) of the following molecule: CCCCCCCCCCCCCCCCSSCCOP(=O)(CO[C@H](C)Cn1cnc2c(N)ncnc21)OCCSSCCCCCCCCCCCCCCCC [Compound 12d]
RESULT: > 25 µM
